Cited source for all entries: paper PMC12040169

- method-description: in vitro
- setup-conditions: human, hela cells, % viability
observable: viability at 28.5 h, 10 µM

- molecule: "O=C(NCc1ccc(Cl)cc1)c1cnc2ccc(C#CCO)cc2c1O"
  test-value: "92.4%"
- molecule: "O=C(Cc1ccc(Cl)cc1Cl)NCCc1c[nH]c2ccc(Cl)cc12"
  test-value: "104%"
- molecule: "Cn1nc(C(C)(C)C)cc1C(=O)N1CCNC(=O)C1Cc1ccc(-c2cccs2)cc1 (stereo not shown)"
  test-value: "92.2%"
- molecule: "COc1ccc(-c2cncc(N[C@@H](CO)C(C)C)n2)cc1"
  test-value: "82.8%"
- molecule: "O=S(=O)(NCc1ccccc1)c1cc(S(=O)(=O)c2ccc(Cl)cc2)ccc1Cl"
  test-value: "109%"
- molecule: "Cc1ncc(C(=O)NC2(c3ccccc3F)CCCC2)c(C)n1"
  test-value: "84.5%"
- molecule: "CC(O)CNC(=O)c1cn2cc(-c3cccs3)n(CC3CC3)c(=O)c2n1 (stereo not shown)"
  test-value: "81.3%"
- molecule: "COc1cccc(CN2C(=O)CC3(C2=O)C(=O)N(CC(=O)c2ccccc2)c2ccccc23)c1 (stereo not shown)"
  test-value: "88.9%"
- molecule: "NS(=O)(=O)c1ccc(-c2nc(-c3ccccc3)no2)cc1"
  test-value: "87.8%"
- molecule: "Cc1cnc(COC(=O)N2C[C@@H](C)O[C@@H](C)C2)cn1"
  test-value: "81.4%"
- molecule: "Cc1ccc(OCc2occc2C(=O)N2CCc3[nH]cnc3C2)cc1"
  test-value: "85.6%"
- molecule: "O=S(=O)(c1ccc(-c2csc(-c3ccccc3)n2)cc1)N1CCCCCC1"
  test-value: "84.9%"
- molecule: "Cc1cn(S(=O)(=O)c2ccc(Br)cc2)cn1"
  test-value: "97.3%"
- molecule: "O=C(CNC(=O)c1ccccc1Cl)Nc1ccc(Br)cc1C(=O)c1ccccc1"
  test-value: "101%"
- molecule: "CCc1ccc2[nH]c(=O)c(CN(CCN(C)C)C(=S)NCc3ccccc3)cc2c1"
  test-value: "98.4%"
- molecule: "COc1cccc(OC)c1OCCN1CCC(C(=O)NC(c2ccccc2)c2ccccn2)CC1 (stereo not shown)"
  test-value: "96.3%"
- molecule: "CCN1CC2(CCC1=O)CCN(c1ccnc(OC)c1C#N)CC2"
  test-value: "95%"
- molecule: "CC(=O)NCc1cccc(-c2cc(C(=O)Nc3ccc4c(c3)OCCO4)cnc2-c2cccnc2)c1"
  test-value: "88.6%"
- molecule: "CCN(C(=O)c1ccncc1)C(CC1CCCCC1)c1ccccc1 (stereo not shown)"
  test-value: "86.9%"
- molecule: "CC(=O)c1cnc2cc(-c3ccc(Cl)cc3)nn2c1C"
  test-value: "107%"
- molecule: "N#CCCCN1CCC2(CC1)OCCc1c2[nH]c2ccc(Br)cc12"
  test-value: "88.4%"
- molecule: "CC(=O)Nc1ccc(CNC(=O)CN(C)Cc2cc(C)on2)cc1"
  test-value: "82.4%"
- molecule: "CC(C)c1ccc(/C=C2\\CCCc3c2nc2ccccc2c3C(=O)O)cc1"
  test-value: "91.2%"
- molecule: "O=C(CN1CCCC2(CCN(C(=O)Cc3c[nH]c4ccccc34)C2)C1)Nc1ccc(F)c(Cl)c1 (stereo not shown)"
  test-value: "108%"
- molecule: "C=Cn1ncc(CN(C)Cc2nc3ccccc3[nH]2)c1C"
  test-value: "91.6%"
- molecule: "Cc1ccc(-n2ncc3c(=O)n(Cc4ccccc4C)cnc32)c(C)c1"
  test-value: "107%"
- molecule: "CS(=O)(=O)N(CCc1ccccc1)CC(=O)O"
  test-value: "109%"
- molecule: "CC(CN(C)C(=O)CC1CCN(C(=O)CC2CCCCC2)CC1)c1ccccc1 (stereo not shown)"
  test-value: "97.9%"
- molecule: "O=C(c1ccc2c(c1)OCO2)N1CCN(C(=O)c2ccc(Cl)cc2F)CC1"
  test-value: "99%"
- molecule: "NS(=O)(=O)c1ccc(NC(=O)CSc2ccc([N+](=O)[O-])cn2)cc1"
  test-value: "95%"
- molecule: "CCn1cc(C(=O)NN)c(=O)c2cc(F)c(N3CCCCCC3)cc21"
  test-value: "100%"
- molecule: "CC(=O)Nc1cc(NC(=O)CCCC(=O)O)ccc1Cl"
  test-value: "73.3%"
- molecule: "CN1CCN(CCOC(=O)N2CCN(c3cccc(C(F)(F)F)c3)CC2)CC1 [CBK115940C]"
  test-value: "103%"
- molecule: "CN(C)c1ncc(-c2ccc(O)cc2)cc1C(=O)NCc1ccc(F)cc1"
  test-value: "91.5%"
- molecule: "O=c1cc(N2CCOCC2)cnn1CCCCOc1ccccc1"
  test-value: "97.9%"
- molecule: "CCOC(=O)CNC(=O)N1CCCC1c1nc(-c2ccccc2)c2ccccn12 (stereo not shown)"
  test-value: "103%"
- molecule: "CC(=O)Nc1cccc(-c2cnc(NCc3ccc4c(c3)OCO4)c(C(=O)NCC3COc4ccccc4O3)c2)c1 (stereo not shown) [CBK138473T]"
  test-value: "116%"
